Reported maximal activation is given for each of the following compounds.
- test description: Rlm1 cell wall stress reporter activators, dose response, S. cerevisiae reporter strain, C. neoformans project, dry powder (AID 743130)
- particulars: S. cerevisiae Rlm1-lacZ reporter, luminescence, 4 h, hits give high values; at 35 µM unless noted
Activity calls are given as the source filed them.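 The calls were made as follows: active = fitted curve rises past 20% activation at a concentration no higher than the top valid tested dose; inactive = activity opposite to the expected signal increase, and the rest.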
parameter measured: maximal activation

INSERT INTO results (compound, recorded_measurement) VALUES
  ('COC(=O)C1=C(C)N(Cc2ccc(Br)cc2)C(=S)NC1c1ccc(OC)cc1 (configuration not stated)', '5.5% [at 0.26 µM] (inactive)'),
  ('COC(=O)C1=C(C)N(Cc2ccc(Cl)cc2)C(=S)NC1c1ccc(Br)cc1 (configuration not stated)', '9% [at 2.1 µM] (inactive)'),
  ('Cc1ccccc1OCCn1c(=S)[nH]c2ccccc21', '-3.77% [at 1 µM] (inactive)'),
  ('CCOC(=O)c1c(-c2ccc(C(C)(C)C)cc2)csc1NC(=O)CN1CCN(C)CC1', '6.67% [at 16 µM] (inactive)'),
  ('CCOC(=O)c1c(-c2ccc(F)cc2)csc1NC(=O)CN1CCN(CC)CC1', '7.91% [at 1 µM] (inactive)'),
  ('CCOC(=O)c1c(-c2ccc(OC)cc2)csc1NC(=O)CN(C)CC(=O)N(C)C', '-2.31% [at 4.2 µM] (inactive)'),
  ('Fc1ccccc1OCCn1c(=S)[nH]c2ccccc21', '-3.96% (inactive)'),
  ('CCOC(=O)c1c(NC(=O)CNCCN(C)C)sc(C)c1-c1ccccc1', '-3% [at 2.1 µM] (inactive)'),
  ('CCOC(=O)c1c(NC(=O)CN2CCN(C)CC2)sc(C)c1-c1ccc(C)cc1', '5.75% (inactive)'),
  ('c1ccc(OCCn2cnc3ccccc32)cc1', '-5.78% [at 1 µM] (inactive)'),
  ('Fc1cccc2c1[nH]c(=S)n2CCOc1ccccc1', '-3.67% [at 8 µM] (inactive)'),
  ('S=c1[nH]c2ccccc2n1CCOc1ccccc1', '3.85% [at 4.2 µM] (inactive)'),
  ('COC(=O)C1=C(C)N(Cc2ccc(F)cc2)C(=S)NC1c1cccc(F)c1 (configuration not stated)', '3.69% (inactive)'),
  ('CCOC(=O)c1c(-c2ccc(F)cc2)csc1NC(=O)CN1CCN(C)CC1', '8.68% [at 16 µM] (inactive)'),
  ('CCOC(=O)c1c(-c2ccc(C(C)(C)C)cc2)csc1NC(=O)CN1CCN(CC)CC1', '2.55% [at 8 µM] (inactive)'),
  ('Cc1cccc(OCCn2c(=S)[nH]c3cc(C(F)(F)F)ccc32)c1', '-9% [at 16 µM] (inactive)'),
  ('Cc1ccc(OCCn2cnc3ccccc32)cc1', '-5.3% [at 4.2 µM] (inactive)');
